# maps each entry to its Ki
target: purified catalytic domain of recombinant human TACE (rhTACEc) (Homo sapiens, UniProt P78536, N452Q/S266A); construct: rhTACEc, Residue 215 to 477 with two mutation (S266A and N452Q) and a 6× His tail; 6xHis (C); made in house; host or cells: baculovirus/Hi5 insect cells; assay: TACE kinetic assay, cleavage of internally quenched peptide substrate SPDL-3; type: biochemical; conditions: TACE inhibitory activity, class letters
Sequence (P78536 215-477 S266A/N452Q): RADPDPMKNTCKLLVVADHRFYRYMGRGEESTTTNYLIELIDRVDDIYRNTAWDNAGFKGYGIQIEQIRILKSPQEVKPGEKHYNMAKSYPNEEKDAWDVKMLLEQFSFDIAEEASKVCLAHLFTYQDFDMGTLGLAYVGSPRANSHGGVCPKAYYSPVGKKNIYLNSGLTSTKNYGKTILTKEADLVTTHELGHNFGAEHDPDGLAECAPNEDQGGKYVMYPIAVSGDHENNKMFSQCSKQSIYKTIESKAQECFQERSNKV

INSERT INTO results (molecule, reportedresult) VALUES
  ('O=C(NO)[C@H]1NC(=O)[C@@H]1Cc1ccc(OCc2cc(-c3ccccc3)nc3ccccc23)cc1', '20 to 100 nM'),
  ('CCOC(=O)[C@@]1(Cc2ccc(OCc3cc(-c4ccccc4)nc4ccccc34)cc2)CNC[C@@H]1C(=O)NO', '20 to 100 nM'),
  ('COC(=O)C(Oc1ccc(C[C@H]2C(=O)N[C@@H]2C(=O)NO)cc1)c1cc(-c2ccccc2)nc2ccccc12 (stereo partly shown)', '100 to 1000 nM');

Would you kindly look at the next entry?
Ask: Requested field: Ki. Item: O=C1N[C@H](C(=O)NO)[C@@H]1Cc1ccc(OCc2cc(-c3ccccc3)nc3ccccc23)cc1
Result: < 20 nM
